Data provenance is patent US4609645A.

# Tested on: Klebsiella pneumoniae ATCC 10031
# run-description: Minimum inhibitory concentration (MIC), antimicrobial activity
# Type: cell-based
# assay-context: ATCC10031; Klebsiella pneumoniae ATCC 10031; heart infusion agar, pH 7, 37° C., about 20 hours; read-out: MIC
A collection of compounds and their measured MIC

| compound | relation | MIC, µg/mL |
| --- | --- | --- |
| CCC1OC(=O)CC(O)C(C)C(OC2OC(C)C(OC3CC(C)(O)C(O)C(C)O3)C(N(C)C)C2O)C(CC=O)CC(C)C(OC2CCC(N(C)C)C(C)O2)C=CC(C)=CC1C (centres unmarked) | > | 100 |
| CCC1OC(=O)CC(O)C(C)C(OC2OC(C)C(O)C(N(C)C)C2O)C(CC=O)CC(C)C(OC2CCC(N(C)C)C(C)O2)C=CC(C)=CC1C (centres unmarked) | = | 25 |
| CCC(=O)OC1CC(=O)OC(C)CC=CC=CC(OC2CCC(N(C)C)C(C)O2)C(C)CC(CC=O)C(OC2OC(C)C(OC3CC(C)(O)C(O)C(C)O3)C(N(C)C)C2O)C1OC (centres unmarked) [SPM III, Spiramycin III, reference compound] | > | 100 |
| CCC1OC(=O)CC(OC(C)=O)C(C)C(OC2OC(C)C(O)C(N(C)C)C2O)C(CC=O)CC(C)C(OC2CCC(N(C)C)C(C)O2)C=CC(C)=CC1C (centres unmarked) | = | 50 |
| CCC1OC(=O)CC(OC(C)=O)C(C)C(OC2OC(C)C(OC3CC(C)(O)C(O)C(C)O3)C(N(C)C)C2O)C(CC=O)CC(C)C(OC2CCC(N(C)C)C(C)O2)C=CC(C)=CC1C (centres unmarked) | > | 100 |
